experiment: qHTS assay to identify small molecule antagonists of the estrogen receptor alpha (ER-alpha) signaling pathway using the BG1 cell line - cell viability counter screen (AID 743081);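 also: compound given together with 17beta-estradiol as the ER stimulus; % is scaled to controls: 0 for no effect and ±100 for the full control effect; nearly all actives have a fitted effect of over 45% in size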
applied.conditions: BG1Luc4E2 viability, CellTiter-Fluor, 22 h; series mostly up to 70.3 µM
Results filed as inconclusive are left out. The source made the active and inactive calls. Calls follow the shape of the dose curve; as a rule, active = well fitted cell-killing curve with a large enough effect in the repeat runs; inconclusive = weak or mixed curves, or effect the other way; inactive = flat fitted curve, though single readings scatter.
outcome.measure: outcome

[[record]]
compound = "CCC(C)(C)OC"
outcome_measure = "outcome"
result = "inactive"

[[record]]
compound = "NC(=O)c1ccncc1"
outcome_measure = "outcome"
result = "inactive"

[[record]]
compound = "C=CC(=O)OCC1CC2CC1C1CCC(COC(=O)C=C)C21 (stereo not drawn)"
outcome_measure = "outcome"
result = "inactive"


###

test.system: Nuclear receptor ROR-gamma (Homo sapiens) (UniProt P51449)
experiment: qHTS assay to identify small molecule antagonists of the retinoid-related orphan receptor gamma (ROR-gamma) signaling pathway (AID 1159521; also: nearly all actives have a fitted effect of over 50% in size)
applied.conditions: Tet-on RORgamma CHO cells, RORE-luciferase, 16 h; series mostly up to 92.4 µM
Results filed as inconclusive are left out. Active and inactive are the calls of the source. Calls follow the shape of the dose curve; as a rule, active = well fitted inhibition curve with a large enough effect in the repeat runs; inconclusive = weak or mixed curves, or effect the other way; inactive = no such curve, though single readings can be large or run the other way.
Return exactly one item of label 1 for active, label 0 for inactive

Look over these answered cases.
[[record]]
compound = "CC(=O)Oc1ccc([N+](=O)[O-])cc1CCl"
group_label = "label 0"

[[record]]
compound = "O=C(OC(=O)c1ccccc1)c1ccccc1"
group_label = "label 0"

[[record]]
compound = "O=c1cc(-c2ccccc2)oc2ccc3ccccc3c12"
group_label = "label 0"

[[record]]
compound = "C=CC(C)(CCC=C(C)C)OC(=O)CC(C)C (stereo unspecified)"
group_label = "label 0"

[[record]]
compound = "C1COC1"
group_label = "label 0"

[[record]]
compound = "O=C1c2ccccc2C(=O)c2c(O)c(O)cc(O)c21"
group_label = "label 0"


Could you check what this test reported for Cc1cc(O)ccc1O ?
label 1

Note, next up: O=C1C(=O)c2ccccc2C(O)=C1C1CCC(c2ccc(Cl)cc2)CC1 (stereo unspecified)
label 1

Note, next up: O=c1[nH]c2ccc(Cl)cc2o1
label 0

Note, next up: OCCOCC#CCOCCO
label 0

Note, next up: COC(=O)c1nc(Cl)c(Cl)nc1N
label 1

Note, next up: NC1[C@H]2CN(c3nc4c(cc3F)c(=O)c(C(=O)O)cn4-c3ccc(F)cc3F)C[C@@H]12 (stereo partly specified)
label 0

Note, next up: C[C@@H](O)[C@H]1C(=O)N2C(C(=O)O)=C([C@H]3CCCO3)S[C@H]12
label 0

Note, next up: C[C@@H](CN(C)C)CN1c2ccccc2Sc2ccccc21
label 1

Note, next up: CC(=O)OCC[N+](C)(C)C
label 0

Note, next up: CC(C)C[C@H](NC(=O)[C@H](CCc1ccccc1)NC(=O)CN1CCOCC1)C(=O)N[C@@H](Cc1ccccc1)C(=O)N[C@@H](CC(C)C)C(=O)[C@@]1(C)CO1
label 1

Note, next up: O=C(/C=C/c1ccc(O)c(O)c1)O[C@@H]1C[C@@](OC(=O)/C=C/c2ccc(O)c(O)c2)(C(=O)O)C[C@@H](O)[C@@H]1O
label 0

Note, next up: Brc1cc2ccccc2c2ccccc12
label 1

Note, next up: N#[N+]c1ccc2c(S(=O)(=O)[O-])cccc2c1O
label 0

Note, next up: C/C=C\C/C=C/CCCCCCCCOC(C)=O
label 0

Note, next up: O=C=Nc1cccc(C(F)(F)F)c1
label 0

Note, next up: Brc1cc(Br)c(Oc2cc(Br)c(Br)cc2Br)cc1Br
label 0

Note, next up: Nc1nnc(-c2ccc([N+](=O)[O-])o2)o1
label 1

Note, next up: CCCCCCCC/C=C\CCCCCCCCO
label 0

Note, next up: CCCCC(CC)COP(=O)(O)O (stereo unspecified)
label 0

Note, next up: C[C@@]12CCC[C@H]1[C@@H]1CC[C@H]3C[C@@H](O)CC[C@]3(C)[C@H]1CC2
label 1

Note, next up: O=C=Nc1ccc(Cl)c(Cl)c1
label 0

Note, next up: C=CC(=O)OCC1CC2CC1C1CCC(COC(=O)C=C)C21 (stereo unspecified)
label 1

Note, next up: CC(C)(C)C(=O)C(=O)O
label 0

Note, next up: CC(C)(c1ccccc1)c1ccccc1
label 0

Note, next up: Cc1ccccc1N=C(N)Nc1ccccc1C
label 0

Note, next up: c1ccc(C[n+]2cccc3ccccc32)cc1
label 0

Note, next up: Oc1cccc(O)c1O
label 0

###

experiment: qHTS assay to test for compound auto fluorescence at 535 nm (green) in HEK293 cell free culture (AID 720682); also: % is scaled to controls: 0 for no effect and ±100 for the full control effect
applied.conditions: cell-free medium, green autofluorescence 485/535 nm, stronger effect = higher value; series mostly up to 91.3 µM
Activity calls are given as the source filed them. Calls follow the shape of the dose curve; as a rule, active = well fitted curve in the direction sought with a large enough effect in the repeat runs; inconclusive = weak or mixed curves; inactive = flat fitted curve, though single readings scatter.
outcome.measure: activity change

Previously resolved entries follow.
[[record]]
molecule = "Brc1cc2ccccc2c2ccccc12"
outcome_measure = "activity change"
result = "inactive"

[[record]]
molecule = "CCN(CC)CCNC(=O)COc1ccc(OC)cc1"
outcome_measure = "activity change"
result = "inactive"

[[record]]
molecule = "CCC(C)COC(=O)CC(C)C (configuration not stated)"
outcome_measure = "activity change"
result = "inactive"

[[record]]
molecule = "O=c1cc(-c2ccccc2)oc2ccc3ccccc3c12"
outcome_measure = "activity change"
result = "inactive"

[[record]]
molecule = "CCc1ccccc1"
outcome_measure = "activity change"
result = "inactive"

[[record]]
molecule = "O=C(Nc1cccc2c(=O)cc(-c3nn[nH]n3)oc12)c1ccc(OCCCCc2ccccc2)cc1"
outcome_measure = "activity change"
result = "inactive"

[[record]]
molecule = "Cc1ccc(OC(=O)c2ccccc2O)cc1"
outcome_measure = "activity change"
result = "inactive"

[[record]]
molecule = "Nc1ccc(N=Nc2ccccc2)c(N)c1"
outcome_measure = "activity change"
result = "inactive"


For every item below, please supply its activity change.
1. C=C1CCC2CC1C2(C)C (configuration not stated)
2. O=[N+]([O-])c1cc(C2CCCCC2)c(O)c([N+](=O)[O-])c1
3. O=C(OCC(O)CO)c1ccccc1Nc1ccnc2cc(Cl)ccc12 (configuration not stated)
4. COc1ccccc1N1CCN(CCCCNC(=O)c2ccc(-c3ccc(C(C)=O)cc3)cc2)CC1
5. O=c1[nH]c2ccc(Cl)cc2o1
6. Cc1ccc(C(C)(C)O)cc1
7. CCCCCC#CC(=O)OC
8. CC(C)=CC(=O)C=C(C)C

["inactive", "inactive", "0.0295% [at 18.6 µM] (inactive)", "inactive", "inactive", "inactive", "inactive", "inactive"]

###

test.system: Retinoic acid receptor RXR-alpha (Homo sapiens)
experiment: qHTS assay to identify small molecule agonists of the RXR signaling pathway (AID 1159527); also: nearly all actives have a fitted effect of over 35% in size
applied.conditions: HEK293T RXRa-UAS-bla, beta-lactamase ratio, 16 h; series mostly up to 76.8 µM
Records with an inconclusive call do not appear. Active and inactive are the calls of the source. Calls come from the whole dose curve.
Return exactly one item of active, inactive

Look over these answered cases.
[[record]]
query_smiles = "CCn1cc(C(=O)O)c(=O)c2cc(F)c(N3CCNCC3)cc21"
group_label = "inactive"

[[record]]
query_smiles = "CN1C(C(=O)Nc2ccccn2)=C(O)c2sccc2S1(=O)=O"
group_label = "inactive"

[[record]]
query_smiles = "CCCCCCCCCCC(=O)O"
group_label = "active"

[[record]]
query_smiles = "O=C(OC(=O)c1ccccc1)c1ccccc1"
group_label = "inactive"

[[record]]
query_smiles = "O=c1cc(-c2ccccc2)oc2ccc3ccccc3c12"
group_label = "inactive"


Could you check what this test reported for C[C@@H](O)[C@H]1C(=O)N2C(C(=O)O)=C([C@H]3CCCO3)S[C@H]12 ?
inactive

Note, next up: Cc1cc(O)ccc1O
inactive

###

experiment: qHTS assay to identify small molecule HDAC inhibitors - cell viability counter screen (AID 1259365); also: % is scaled to controls: 0 for no effect and ±100 for the full control effect; nearly all actives have a fitted effect of over 50% in size
applied.conditions: HCT-116 viability, CellTiter-Glo ATP luminescence, 2 h; series mostly up to 92.4 µM
Active and inactive are the calls of the source. The call rests on the fitted dose curve; in most records, active means well fitted cell-killing curve with a large enough effect in the repeat runs; inconclusive means weak or mixed curves, or effect the other way; inactive means flat fitted curve, though single readings scatter.
Return exactly one item of yes (1) = active, no (0) = inactive

Look over these answered cases.
[[record]]
compound = "CCCCCCC(C)(C)C(=O)O"
group_label = "no (0)"

[[record]]
compound = "C=C1C[C@@]23CC[C@H]4[C@@](C)(CCC[C@@]4(C)C(=O)O[C@@H]4O[C@H](CO)[C@@H](O)[C@H](O)[C@H]4O)[C@@H]2CC[C@]1(O[C@@H]1O[C@H](CO)[C@@H](O)[C@H](O[C@@H]2O[C@H](CO)[C@@H](O)[C@H](O)[C@H]2O)[C@H]1O[C@@H]1O[C@H](CO)[C@@H](O)[C@H](O)[C@H]1O)C3"
group_label = "no (0)"

[[record]]
compound = "CC(C)=CCC/C(C)=C/CC/C(C)=C/CCC(=O)OC/C=C(\\C)CCC=C(C)C"
group_label = "no (0)"


Could you check what this test reported for CC1=C(CC=O)C(C)(C)CCC1 ?
no (0)

Note, next up: Cc1ccc(Cl)c(Nc2ccccc2C(=O)O)c1Cl
no (0)

Note, next up: CC1(C)S[C@@H]2[C@H](NC(=O)C(c3ccccc3)S(=O)(=O)O)C(=O)N2[C@H]1C(=O)O (stereo partly drawn)
no (0)

Note, next up: CN(C)CCN1C(=O)c2ccccc2N(C)c2ccccc21
no (0)

Note, next up: CC(=O)[C@H]1[C@H](C#N)C[C@H]2[C@@H]3CC=C4C[C@@H](O)CC[C@]4(C)[C@H]3CC[C@@]21C
no (0)
